biological target: T1, HLA-B*0702 (human); experiment: inhibition of 125I standard peptide binding to purified HLA
T1 construct: also called B7 supertype prototype molecule
quantity-kind: relative binding ratio

Answered examples (6):
>  <binder>
PPSPREGPL (also called Her2/neu.1149) [HER2/neu peptide, position 1149, 9 amino acids]

>  <result>
0.0054 ratio to standard peptide

$$$$
>  <binder>
VPIKWMAL (also called Her2/neu.884) [HER2/neu peptide, position 884, 8 amino acids]

>  <result>
1.4 ratio to standard peptide

$$$$
>  <binder>
RPEDECVGEGL (also called Her2/neu.499) [HER2/neu peptide, position 499, 11 amino acids]

>  <result>
-0.0002 ratio to standard peptide

$$$$
>  <binder>
SPYVSRLLGI (also called Her2/neu.779) [HER2/neu peptide, position 779, 10 amino acids]

>  <result>
0.1 ratio to standard peptide

$$$$
>  <binder>
QPPICTIDVYM (also called Her2/neu.943) [HER2/neu peptide, position 943, 11 amino acids]

>  <result>
0.002 ratio to standard peptide

$$$$
>  <binder>
WPDSLPDL (also called Her2/neu.415) [HER2/neu peptide, position 415, 8 amino acids]

>  <result>
0.02 ratio to standard peptide

$$$$

(Q) Item QPPICTIDVY (also called Her2/neu.943) [HER2/neu peptide, position 943, 10 amino acids] has what recorded relative binding ratio?
(A) 0.0001 ratio to standard peptide

(Q) Okay, and VPLQRLRIV (also called Her2/neu.94) [HER2/neu peptide, position 94, 9 amino acids] ?
(A) 0.0077 ratio to standard peptide

(Q) Note, next up: TPVTGASPGGL (also called Her2/neu.127) [HER2/neu peptide, position 127, 11 amino acids]
(A) -0.0002 ratio to standard peptide

(Q) Then what about the binder SPLAPSEGA (also called Her2/neu.1073) [HER2/neu peptide, position 1073, 9 amino acids] ?
(A) 0.003 ratio to standard peptide

(Q) Record: SPLTSIISAV (also called Her2/neu.649) [HER2/neu peptide, position 649, 10 amino acids]
(A) 0.09 ratio to standard peptide

(Q) Same question, SPLDSTFYRSL (also called Her2/neu.998) [HER2/neu peptide, position 998, 11 amino acids] this time
(A) 0.064 ratio to standard peptide

(Q) What would you report for SPKANKEI (also called Her2/neu.760) [HER2/neu peptide, position 760, 8 amino acids] ?
(A) 0.058 ratio to standard peptide
